B1: Homeobox protein cut-like 2, residues 895 to 963; numbered along this chain, O14529 (parent)
chain: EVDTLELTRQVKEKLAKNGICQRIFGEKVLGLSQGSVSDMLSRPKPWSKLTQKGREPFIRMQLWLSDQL

# Variants of: B1
# PROTOCOL_TEXT: abundance fitness (aPCA) (normalised: wild type 0, dead -1); higher = more abundant; growth selection in yeast, the domain comes from the species named
# SETUP_CONDITIONS: Homo sapiens
Here the recorded abundance fitness is given for each entry.

MUTATION | abundance fitness
K28L | -0.335
F25L | -0.351
L65A | -0.694
R9V | -0.15
G26F | -0.02
Q68R | -0.057
D67Q | 0.057
L65N | -0.973
E1F | -0.079
G54F | -0.048
G54P | -0.581
K28H | -0.128
L30G | -0.387
S66K | 0.109
T8G | -0.204
N18K | 0.04
I59F | -0.212
S33G | -0.03
K14V | -0.03
F58L | -0.274
Q62K | 0.17
L63R | 0.096
G54T | -0.084
S66L | -0.104
V2Y | -0.152
K53H | -0.194
T8V | 0.041
